# tested-target: T1, human PCSK9 (proprotein convertase subtilisin/kexin type 9), His-tagged, full-length (human, UniProt A8T644 31-152; Q8NBP7 153-692, limits assumed)
# T1 construct: The secreted protein is the prodomain plus the catalytic/Cys-rich part (N-terminus S153) after autocleavage; also called His-PCSK9; NARC-1
# T1 sequence (A8T644 31-152 limits assumed, chain 1 of 2): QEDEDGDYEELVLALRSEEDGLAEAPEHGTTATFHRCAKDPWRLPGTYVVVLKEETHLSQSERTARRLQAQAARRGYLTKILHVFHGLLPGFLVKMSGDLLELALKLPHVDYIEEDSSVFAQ
# T1 sequence (A8T644 other isoform, or with tags, fused parts or gaps limits assumed, chain 2 of 2): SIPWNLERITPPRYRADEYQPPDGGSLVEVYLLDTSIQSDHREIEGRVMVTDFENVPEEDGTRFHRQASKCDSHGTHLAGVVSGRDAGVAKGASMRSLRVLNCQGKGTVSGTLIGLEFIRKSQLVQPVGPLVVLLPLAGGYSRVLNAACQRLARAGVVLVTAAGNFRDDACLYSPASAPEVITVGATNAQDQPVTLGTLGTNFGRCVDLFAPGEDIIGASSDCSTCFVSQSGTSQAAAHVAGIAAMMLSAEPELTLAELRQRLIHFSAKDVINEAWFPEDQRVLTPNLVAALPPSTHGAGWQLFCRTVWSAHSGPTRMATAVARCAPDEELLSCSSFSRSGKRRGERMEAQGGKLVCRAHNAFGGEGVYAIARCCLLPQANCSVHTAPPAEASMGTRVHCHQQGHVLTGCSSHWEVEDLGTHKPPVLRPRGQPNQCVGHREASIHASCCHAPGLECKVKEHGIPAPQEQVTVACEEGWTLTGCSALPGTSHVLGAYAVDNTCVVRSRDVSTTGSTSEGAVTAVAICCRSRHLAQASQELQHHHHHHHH
# measurement-notes: TR-FRET competition vs EGF(A)-Fc on His-PCSK9
Bridge positions count the residues as written; N and C are the ends.
Field: pIC50. Provide a value for each of the binders that follow.
In simple prose, pIC50 is minus the logarithm base ten of a concentration in moles per litre.

Req: Quick one: pIC50 of Ac-TVFTSWEEYLDWVGSGGCFLPWNLQRIGLLC-NH2 (disulfide 18-31 (inferred)) [Compound 38] ?
Resp: 6.33

Req: Another binder: Ac-TVFTSWEEYLDWVGSGGCRLPWNLQRIGLPC-NH2 (disulfide 18-31 (inferred)) [Compound 25]
Resp: 6.11

Req: Another binder: Ac-TVFTSWEEYLDWVGSGGCWNLKRIGSQGC-NH2 (disulfide 18-29 (inferred)) [Compound 14]
Resp: 8.05

Req: Another binder: Ac-TVFTSWEEYLDWVGSGCWNLKRVGSQGC-NH2 (disulfide 17-28 (inferred)) [Compound 12]
Resp: 6.72

Req: Another binder: Ac-TVFTSWEEYLDWVGSGCRLPWNLQRIGLPC-NH2 (disulfide 17-30 (inferred), also called Pep2-8p4; Pep2-8_K9gvpep4) [Compound 19]
Resp: 8.05

Req: Another binder: Ac-TVFTSWEEYLDWVGGSGCWNLKRIGSQGC-NH2 (disulfide 18-29 (inferred)) [Compound 13]
Resp: 8.00

Req: Another binder: Ac-TVFTSWEEYLDWVGSGCWNLGRIGSQGC-NH2 (disulfide 17-28 (inferred)) [Compound 11]
Resp: 6.47

Data origin, for the record: patent US20190177366A1
